Where do these numbers come from? They come from patent US20190308963A1.

# SYSTEM_TESTED: BRD4 (BD1) (Homo sapiens, UniProt O60885)
# Construct: recombinant human BRD4 (BD1; aa 44-170)
# EXPERIMENT_DESCRIPTION: AlphaScreen FRET binding assay, BRD4 (BD1)
# MEASUREMENT_SETUP: read-out: IC50 value for the inhibition of BRD4 (BD1)
PROPERTY_MEASURED: IC50 (µM)
Reply numerically in µM, unit not repeated.

Some entries whose results are on file:
| MOLECULE | MEASUREMENT_UNIT | IC50 |
| --- | --- | --- |
| CC(C)Nc1nc2c(-c3cn(C)c(=O)c4[nH]ccc34)cccc2cc1C1CCCN1c1ncnc(N)c1C#N (stereo not shown) [Compound 22] | µM | 0.636 |
| Cc1nnc2ccc(-c3ccc4cc(C5CCCN5c5ncnc(N)c5C#N)c(N5CCOCC5)nc4c3)nn12 (stereo not shown) [Compound 7] | µM | 0.694 |
| Cc1cc(-c2cccc3cc(C4CCCN4c4ncnc(N)c4C#N)c(N4CCCCC4)nc23)cn(C)c1=O (stereo not shown) [Compound 18] | µM | 0.0845 |
| Cc1cc(-c2cccc3cc(C4CCCN4c4ncnc(N)c4C#N)c(-c4cccnc4)nc23)cn(C)c1=O (stereo not shown) [Compound 29] | µM | 0.0379 |
| Cc1cc(-c2c(F)ccc3cc(C4CCCN4c4ncnc(N)c4C#N)c(N4CCOCC4)nc23)cn(C)c1=O (stereo not shown) [Compound 15] | µM | 1.25 |

Reported IC50 ( Cc1cc(-c2c(F)ccc3cc(C4CCCN4c4nc(N)nc(N)c4C#N)c(N4CCOCC4)nc23)cn(C)c1=O (stereo not shown) [Compound 13] ) = 0.799
